conditions: in ethanol, 323.15 K
measurement-name: solubility (mole fraction)

structure-notation: O=C(O)c1cc([N+](=O)[O-])ccc1O
reported-value: 0.0752

----------
conditions: in isopropanol, 318.15 K

structure-notation: O=C(O)c1cc([N+](=O)[O-])ccc1O
solubility (mole fraction): 0.0641

----------
settings: in NMP, 288.15 K

structure-notation: O=C(O)c1cc([N+](=O)[O-])ccc1O
solubility (mole fraction): 0.119

----------
conditions: in isobutanol, 318.15 K

structure-notation: O=C(O)c1cc([N+](=O)[O-])ccc1O
solubility (mole fraction): 0.043

----------
conditions: in methanol, 278.15 K

structure-notation: O=C(O)c1cc([N+](=O)[O-])ccc1O
solubility (mole fraction): 0.0316
